Where these numbers come from: ChEMBL document CHEMBL1909046

# assay-target: Alpha-2A adrenergic receptor (Homo sapiens); note: in other assays of this panel Not Active means under 50% inhibition at 10 µM
# Sequence (P08913 whole entry): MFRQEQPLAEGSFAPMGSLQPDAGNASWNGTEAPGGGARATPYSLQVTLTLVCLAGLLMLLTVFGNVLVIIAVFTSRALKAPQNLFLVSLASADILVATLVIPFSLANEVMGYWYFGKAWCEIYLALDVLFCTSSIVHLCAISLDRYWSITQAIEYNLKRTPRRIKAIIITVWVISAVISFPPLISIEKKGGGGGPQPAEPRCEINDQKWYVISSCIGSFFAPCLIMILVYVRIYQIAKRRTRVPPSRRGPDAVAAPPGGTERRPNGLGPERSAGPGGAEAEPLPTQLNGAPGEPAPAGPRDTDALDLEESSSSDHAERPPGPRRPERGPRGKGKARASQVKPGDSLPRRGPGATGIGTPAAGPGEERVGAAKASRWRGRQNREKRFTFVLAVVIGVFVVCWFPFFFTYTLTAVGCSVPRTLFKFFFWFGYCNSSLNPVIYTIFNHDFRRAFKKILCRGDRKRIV
# Format: cell membranes, Sf9, Membrane
# experimental-parameters: read-out: IC50
Quick reference for pIC50 among some compounds
Would you please state pIC50, meaning minus log10 of the concentration in mol/L, as a bare number?

Answered cases to consult:
Fill in the blank: the reported pIC50 of CN1CCC(=C2c3ccccc3CC(=O)c3sccc32)CC1 [KETOTIFEN] is ____.
5.66

Request the reported pIC50 associated with CCCCCCCCNC(C)C(O)c1ccc(SC(C)C)cc1 (stereo unspecified) [SULOCTIDIL]
5.69

Request the reported pIC50 associated with CN(C)CCC=C1c2ccccc2CCc2ccccc21 [AMITRIPTYLINE]
6.45

---
Requested field: pIC50. Item: CN1CCN(C(c2ccccc2)c2ccccc2)CC1 [CYCLIZINE]
5.81

Requested field: pIC50. Item: N=C(N)c1ccc(OCCCCCOc2ccc(C(=N)N)cc2)cc1 [PENTAMIDINE]
5.86

# get_value(readout='pIC50', item= CCN(CC)CCCC(C)Nc1c2ccc(Cl)cc2nc2ccc(OC)cc12 (stereo unspecified) [QUINACRINE] )
5.64

====

# assay-target: Cytochrome P450 2E1 (Homo sapiens); note: in other assays of this panel Not Active means under 50% inhibition at 10 µM
# Sequence (P05181 whole entry): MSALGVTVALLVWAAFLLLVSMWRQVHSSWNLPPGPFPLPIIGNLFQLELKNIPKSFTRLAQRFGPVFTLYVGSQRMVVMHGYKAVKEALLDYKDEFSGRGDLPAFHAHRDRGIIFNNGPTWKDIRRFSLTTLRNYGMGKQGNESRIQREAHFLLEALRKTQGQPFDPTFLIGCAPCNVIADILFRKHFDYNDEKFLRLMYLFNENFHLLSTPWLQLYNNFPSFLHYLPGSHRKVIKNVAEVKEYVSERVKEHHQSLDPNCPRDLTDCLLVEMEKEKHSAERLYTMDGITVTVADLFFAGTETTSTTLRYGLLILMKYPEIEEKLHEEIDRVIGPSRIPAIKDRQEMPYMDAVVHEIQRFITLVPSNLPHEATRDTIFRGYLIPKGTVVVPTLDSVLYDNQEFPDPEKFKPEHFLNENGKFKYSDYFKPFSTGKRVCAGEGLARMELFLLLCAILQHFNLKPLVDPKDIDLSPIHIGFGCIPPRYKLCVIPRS
# experimental-parameters: bti-tn-5b1-4
readout-label: Ki

Below are worked cases with known answers.
Suppose we examine the compound CN(C)C(=N)NC(=N)N [METFORMIN] ; what Ki value has been reported?
Not Active

I am curious: what Ki value has been reported for CCCCCCCCNC(C)C(O)c1ccc(SC(C)C)cc1 (stereo not given) [SULOCTIDIL] ?
Not Active

Quick one: Ki of O=C(O)c1ccccc1O [SALICYLIC ACID] ?
Not Active

Requested field: Ki. Item: `O=C(c1ccccc1F)N1CCC(Cc2ccccc2)CC1`
Not Active

Please report the recorded Ki for CC(C)(C)NCC(O)COc1cccc2c1CC(O)C(O)C2 (stereo not given) [NADOLOL] .
Not Active

***
Given CN1CCN(C2=Nc3cc(Cl)ccc3Nc3ccccc32)CC1 [CLOZAPINE] , state its recorded Ki.
Not Active

What does the data say about its Ki? Entry: Cc1cccc(C)c1NC(=O)C1CCCCN1C (stereo not given) [MEPIVACAINE]
Not Active

====

# assay-target: 5-hydroxytryptamine receptor 2B (Homo sapiens); note: in other assays of this panel Not Active means under 50% inhibition at 10 µM
# Sequence (P41595 whole entry): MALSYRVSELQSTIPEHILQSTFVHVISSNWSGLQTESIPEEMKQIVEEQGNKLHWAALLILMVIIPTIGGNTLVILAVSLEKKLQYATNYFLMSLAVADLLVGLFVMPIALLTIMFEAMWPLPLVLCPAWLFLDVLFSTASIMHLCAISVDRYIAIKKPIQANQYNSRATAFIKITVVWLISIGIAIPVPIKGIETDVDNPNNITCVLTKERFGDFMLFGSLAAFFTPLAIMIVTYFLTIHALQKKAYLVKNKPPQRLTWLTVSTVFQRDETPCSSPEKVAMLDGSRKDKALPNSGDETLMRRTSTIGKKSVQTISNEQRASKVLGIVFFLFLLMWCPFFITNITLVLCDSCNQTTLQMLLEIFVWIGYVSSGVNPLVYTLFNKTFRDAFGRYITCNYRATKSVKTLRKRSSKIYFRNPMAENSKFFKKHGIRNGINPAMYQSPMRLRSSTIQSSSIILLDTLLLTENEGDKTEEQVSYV
# Format: cell membranes, CHO-K1, Membrane
# experimental-parameters: cho-k1
readout-label: IC50

The examples below pair each entry with its known result.
Can you share its IC50? I mean this molecule: `C[C@@H]1O[C@@H](O[C@H]2C[C@@H](O)[C@]3(CO)[C@H]4[C@H](O)C[C@]5(C)[C@@H](C6=CC(=O)OC6)CC[C@]5(O)[C@@H]4CC[C@]3(O)C2)[C@H](O)[C@H](O)[C@H]1O`
Not Active

Entry under review: CCCNC(=O)NS(=O)(=O)c1ccc(Cl)cc1 [CHLORPROPAMIDE] . Reported IC50?
Not Active

Can you look up the measured IC50 of `NC12CC3CC(CC(C3)C1)C2` for me?
Not Active

Which measured IC50 value corresponds to NS(=O)(=O)c1cc(C2(O)NC(=O)c3ccccc32)ccc1Cl (centres undefined) ?
Not Active

Fill blank: measured IC50 of the molecule CN(C)C(=O)Oc1cccc([N+](C)(C)C)c1.[Br-] [NEOSTIGMINE BROMIDE] is ____.
Not Active

***
Would you mind telling me what IC50 value was observed for NC(=O)c1cccnc1 [NIACINAMIDE] ?
Not Active

// query IC50 value for entry Nc1ccc(S(=O)(=O)NC(=O)c2ccccc2)cc1 [SULFABENZAMIDE]
Not Active

What IC50 value was documented for this molecule, CS(=O)(=O)Nc1ccc([N+](=O)[O-])cc1Oc1ccccc1 [NIMESULIDE] ?
Not Active

Requested read-out: IC50. Entry: CCN(CC)CCNC(=O)c1ccc(N)cc1 [PROCAINAMIDE]
Not Active
